- system.tested: T1, APNPCP, CP of an uncharacterized NRP/PK gene cluster from Anabaena
- T1 chain: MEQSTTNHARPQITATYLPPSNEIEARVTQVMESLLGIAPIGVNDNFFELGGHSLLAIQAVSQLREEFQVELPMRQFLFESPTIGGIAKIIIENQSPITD
measure: kcat (s⁻¹)
# unit: s⁻¹ | format: bare number

Recorded results for 3 proteins are shown here.
>>> recorded_value("MPPT, Sfp-like phosphopantetheinyl transferase (PPTase) from Microcystis aeruginosa NIES843 (protein) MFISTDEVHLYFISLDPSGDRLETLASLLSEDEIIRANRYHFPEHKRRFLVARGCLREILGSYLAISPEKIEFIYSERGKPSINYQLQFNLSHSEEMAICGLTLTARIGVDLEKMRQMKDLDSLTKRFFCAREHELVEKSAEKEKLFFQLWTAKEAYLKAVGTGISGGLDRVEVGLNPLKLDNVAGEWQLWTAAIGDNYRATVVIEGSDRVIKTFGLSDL")
0.0317
>>> recorded_value("Sfp, phosphopantetheinyl transferase from Bacillus subtilis (protein) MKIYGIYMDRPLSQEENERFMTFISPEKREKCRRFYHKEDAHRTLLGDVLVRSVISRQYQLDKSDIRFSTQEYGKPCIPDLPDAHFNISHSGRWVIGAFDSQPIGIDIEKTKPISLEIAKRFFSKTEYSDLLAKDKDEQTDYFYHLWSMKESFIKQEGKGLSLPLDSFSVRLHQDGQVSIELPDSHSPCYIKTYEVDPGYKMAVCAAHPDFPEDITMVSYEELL")
0.0367
>>> recorded_value("APPT, Sfp-like phosphopantetheinyl transferase (PPTase) from Anabaena sp. PCC7120 (protein) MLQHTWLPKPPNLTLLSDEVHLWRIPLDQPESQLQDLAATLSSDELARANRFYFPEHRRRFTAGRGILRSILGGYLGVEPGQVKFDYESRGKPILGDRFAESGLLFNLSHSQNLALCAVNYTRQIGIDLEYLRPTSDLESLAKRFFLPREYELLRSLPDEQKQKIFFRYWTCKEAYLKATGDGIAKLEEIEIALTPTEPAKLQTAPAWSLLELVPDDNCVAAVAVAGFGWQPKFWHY")
0.0167

Now for a further protein.
[ask] Need kcat of SPPT, Sfp-like phosphopantetheinyl transferase (PPTase) from Synechocystis sp. PCC6803 (protein) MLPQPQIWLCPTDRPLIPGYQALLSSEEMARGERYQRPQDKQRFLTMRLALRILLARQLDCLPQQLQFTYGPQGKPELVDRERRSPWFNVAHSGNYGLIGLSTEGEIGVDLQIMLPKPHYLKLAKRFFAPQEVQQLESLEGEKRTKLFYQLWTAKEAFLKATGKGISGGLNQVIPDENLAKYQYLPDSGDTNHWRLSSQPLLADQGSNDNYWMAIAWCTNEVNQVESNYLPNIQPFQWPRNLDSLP , thanks.
[reply] 0.0383
